From: patent EP4813993A1

- EXPERIMENT: Pharmacokinetic study in ICR mice
- Type: in vivo
- CONDITION_INFO: male, mouse, plasma, iv, Injection (i.v.), 2 mg/kg
Parameter threshold = 2000 ng·h/mL. Response is met when AUC(0-inf) meets or exceeds it, else not met.

compound=COc1c([C@@H]2C[C@](C)(C(F)(F)F)S[C@H]2C(=O)Nc2cccc(S(N)(=O)=O)c2)ccc(F)c1F assigned_class=met
compound="COc1c([C@@H]2C[C@](C)(C(F)(F)F)SC2C(=O)Nc2ccnc([N+](=O)[O-])c2)ccc(F)c1F (stereo in doubt)" assigned_class=met
compound=COc1c([C@@H]2C[C@](C)(C(F)(F)F)S[C@H]2C(=O)Nc2ccc3c(c2)COB3O)ccc(F)c1F assigned_class="not met"
compound=COc1c([C@@H]2C[C@](C)(C(F)(F)F)S[C@H]2C(=O)Nc2ccc(F)c(S(N)(=O)=O)c2)ccc(F)c1F assigned_class=met
